# TARGET_ENTITY: UniProtKB P31422
# Sequence (P31422 23-879): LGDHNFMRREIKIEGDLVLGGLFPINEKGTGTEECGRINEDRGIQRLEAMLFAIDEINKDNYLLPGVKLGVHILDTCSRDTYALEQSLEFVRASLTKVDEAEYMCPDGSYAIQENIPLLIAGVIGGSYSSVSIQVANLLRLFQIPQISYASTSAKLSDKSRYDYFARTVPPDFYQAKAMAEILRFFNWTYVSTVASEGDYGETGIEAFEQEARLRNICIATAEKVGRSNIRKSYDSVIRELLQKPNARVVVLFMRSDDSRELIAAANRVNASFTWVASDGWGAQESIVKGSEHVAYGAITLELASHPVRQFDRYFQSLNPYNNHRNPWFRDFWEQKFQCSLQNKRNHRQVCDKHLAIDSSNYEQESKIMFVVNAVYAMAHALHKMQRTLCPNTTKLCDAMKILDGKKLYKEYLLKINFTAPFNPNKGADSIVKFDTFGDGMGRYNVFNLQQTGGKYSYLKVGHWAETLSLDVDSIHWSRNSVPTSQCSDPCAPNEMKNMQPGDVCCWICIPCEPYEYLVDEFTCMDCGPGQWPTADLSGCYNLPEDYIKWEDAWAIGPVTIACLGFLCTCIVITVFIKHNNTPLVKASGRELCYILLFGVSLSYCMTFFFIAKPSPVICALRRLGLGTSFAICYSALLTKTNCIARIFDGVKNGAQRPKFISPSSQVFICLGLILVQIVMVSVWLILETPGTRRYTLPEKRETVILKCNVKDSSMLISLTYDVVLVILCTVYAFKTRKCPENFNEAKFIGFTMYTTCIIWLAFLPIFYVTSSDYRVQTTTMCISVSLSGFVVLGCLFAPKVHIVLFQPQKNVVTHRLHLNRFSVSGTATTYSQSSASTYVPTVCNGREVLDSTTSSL
# PROTOCOL_NOTES: mGlu3 Ca2+ flux assay
# Format: cell-based
# PARTICULARS: amplitude of response at 30 μM test compound as % of maximal response to glutamate; read-out: rat mGlu3 Glu max (%)
I'd be grateful if you could share measured remaining activity at 30 µM for these entries.
Number in %, nothing else.

Need remaining activity at 30 µM, item COc1ccc(N(C)Cc2cc3n(n2)CCN(c2ccc(F)cc2C)C3=O)cc1 [Compound 109]
2.13

Need remaining activity at 30 µM, item COc1ccc(N(C)Cc2cc3n(n2)CCN(c2ccc(OC(F)F)cc2)C3=O)cc1 [Compound 123]
0.3

Need remaining activity at 30 µM, item C[C@@H]1CN(c2ccc(F)cc2)C(=O)c2cc(CNc3cccc(OC(F)F)c3)nn21 [Compound 54]
3.56

Need remaining activity at 30 µM, item CCN(Cc1cc2n(n1)CCN(c1ccc(F)c(F)c1)C2=O)c1ccc(OC)cc1 [Compound 168]
1.95

Need remaining activity at 30 µM, item COc1ccc(N(C)Cc2cc3n(n2)CCN(c2ccccc2C#N)C3=O)cc1 [Compound 112]
1.1

Need remaining activity at 30 µM, item O=C1c2cc(CNc3ccc4c(c3)OC(F)(F)O4)nn2CCN1c1ccc(F)cc1 [Compound 39]
1.95

Need remaining activity at 30 µM, item CC(C)c1ccc(NCc2cc3n(n2)CCN(c2ccc(F)cc2)C3=O)cc1 [Compound 23]
28.9

Need remaining activity at 30 µM, item COc1ccc(N(C)Cc2cc3n(n2)CCN(c2cccc(C#N)c2)C3=O)cc1 [Compound 116]
1.55

###

I'd be grateful if you could share measured mGlu5 Glu max for these entries.
# TARGET_ENTITY: rat mGlu5 (Rattus norvegicus (Rat))
# Sequence (P31424 21-1203): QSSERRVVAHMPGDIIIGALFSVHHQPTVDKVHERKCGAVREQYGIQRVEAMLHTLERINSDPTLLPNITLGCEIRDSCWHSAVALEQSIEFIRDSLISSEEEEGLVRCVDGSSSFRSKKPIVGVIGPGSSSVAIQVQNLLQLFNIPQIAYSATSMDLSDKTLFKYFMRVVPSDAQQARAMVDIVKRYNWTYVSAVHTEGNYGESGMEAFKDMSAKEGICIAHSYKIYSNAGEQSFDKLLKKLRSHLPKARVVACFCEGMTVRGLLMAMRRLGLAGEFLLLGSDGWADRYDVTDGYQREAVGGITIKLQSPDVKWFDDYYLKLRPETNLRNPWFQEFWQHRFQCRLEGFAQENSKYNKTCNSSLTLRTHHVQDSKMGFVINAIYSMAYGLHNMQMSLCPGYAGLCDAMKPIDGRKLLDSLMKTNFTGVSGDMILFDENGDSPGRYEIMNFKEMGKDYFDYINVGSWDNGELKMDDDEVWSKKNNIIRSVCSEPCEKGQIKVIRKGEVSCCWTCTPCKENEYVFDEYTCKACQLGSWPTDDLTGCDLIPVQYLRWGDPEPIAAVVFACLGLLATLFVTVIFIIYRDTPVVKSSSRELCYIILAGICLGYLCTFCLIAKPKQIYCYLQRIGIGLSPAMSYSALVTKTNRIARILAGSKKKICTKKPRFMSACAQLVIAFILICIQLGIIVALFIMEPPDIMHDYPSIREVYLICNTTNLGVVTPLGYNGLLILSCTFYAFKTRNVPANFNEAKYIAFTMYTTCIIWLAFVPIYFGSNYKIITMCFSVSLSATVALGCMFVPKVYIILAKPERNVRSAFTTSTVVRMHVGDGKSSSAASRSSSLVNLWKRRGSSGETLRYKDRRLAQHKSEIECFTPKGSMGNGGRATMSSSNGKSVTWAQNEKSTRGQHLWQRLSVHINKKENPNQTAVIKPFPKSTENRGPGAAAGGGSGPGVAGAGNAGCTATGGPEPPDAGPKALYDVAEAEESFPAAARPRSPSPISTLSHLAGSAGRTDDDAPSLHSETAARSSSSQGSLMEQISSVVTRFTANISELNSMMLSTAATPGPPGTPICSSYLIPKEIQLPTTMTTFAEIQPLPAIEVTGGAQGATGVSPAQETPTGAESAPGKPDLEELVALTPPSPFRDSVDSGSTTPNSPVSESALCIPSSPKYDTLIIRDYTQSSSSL
# PROTOCOL_NOTES: mGlu5 Ca2+ flux assay
# Type: cell-based
# PARTICULARS: Table 2 compounds with X = O; response at 30 μM compound as percentage of maximal glutamate response
Number in %, nothing else.

Need mGlu5 Glu max, item O=C1c2cc(COc3ccccc3F)nn2CCN1c1ccc(F)cc1 [drawing 30 X = O, reference compound]
61

Need mGlu5 Glu max, item O=C1c2cc(COc3ccccc3)nn2CCN1c1ccc(F)cc1 [drawing 29 X = O, reference compound]
79

Need mGlu5 Glu max, item O=C1c2cc(COc3ccc(F)cc3)nn2CCN1c1ccc(F)cc1 [drawing 32 X = O, reference compound]
71

Need mGlu5 Glu max, item O=C1c2cc(COc3cccc(F)c3)nn2CCN1c1ccc(F)cc1 [drawing 31 X = O, reference compound]
69

###

I'd be grateful if you could share measured EC50 for these entries.
# TARGET_ENTITY: UniProt P31424
# PROTOCOL_NOTES: mGlu5 Ca2+ flux assay
# Assay type: cell-based
# PARTICULARS: read-out: rat mGlu5 EC50 or IC50
# Description: The cells were grown overnight at 37° C. in the presence of 5% CO2. […] Dye was removed, 20 μL of assay buffer was added, and the plate was incubated for 5 minutes at room temperature. Ca^2+ flux was measured using the Functional Drug Screening System (FDSS7000, Hamamatsu, Japan). […] Calcium fluorescence measures were recorded as fold over basal fluorescence; raw data was then normalized to the maximal response to glutamate. […]

Requested read-out EC50, target or system UniProt P31424, entry `COc1ccc(N(C)Cc2cc3n(n2)CCN(c2cccc(Cl)c2)C3=O)cc1`
> 30 µM

Requested read-out EC50, target or system UniProt P31424, entry `C[C@H]1CN(c2ccc(F)cc2)C(=O)c2cc(CNc3cccc(F)c3F)nn21`
5.75 µM

Requested read-out EC50, target or system UniProt P31424, entry `COc1ccc(N(C)Cc2cc3n(n2)CCN(c2ccc(F)cc2Cl)C3=O)cc1`
> 30 µM

Requested read-out EC50, target or system UniProt P31424, entry `CN(Cc1cc2n(n1)CCN(c1ccc(F)cc1)C2=O)c1ccccc1`
> 30 µM

Requested read-out EC50, target or system UniProt P31424, entry `COc1ccc(NCc2cc3n(n2)CCN(c2ccc(F)cc2)C3=O)cc1`
> 30 µM

Requested read-out EC50, target or system UniProt P31424, entry `O=C1c2cc(CNc3cccc(C(F)(F)F)n3)nn2CCN1c1ccc(F)cc1`
> 10 µM

Requested read-out EC50, target or system UniProt P31424, entry `Cc1ccc(NCc2cc3n(n2)[C@H](C)CN(c2ccc(F)cc2)C3=O)cc1`
> 30 µM

Requested read-out EC50, target or system UniProt P31424, entry `COc1cccc(NCc2cc3n(n2)CCN(c2ccc(F)cc2)C3=O)c1`
> 30 µM

Requested read-out EC50, target or system UniProt P31424, entry `C[C@@H]1CN(c2ccc(F)cc2)C(=O)c2cc(CNc3ccccc3F)nn21`
> 10 µM
